Here the recorded RAM network inhibition is given for each entry.
# assay.explanation: RAM signaling pathway blockade in yeast – S. cerevisiae, Pdr1DBD-CYC8 efflux-inhibited sensitized strain, primary screen (AID 1298);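 note: 0% = DMSO untreated cells without growth and 100% = 10 µM 1-NA-PP1 full growth; higher means more yeast growth rescued from 5-FOA killing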
# experimental.context: S. cerevisiae cbk1-as DSE1-URA3 strain, 5-FOA growth OD615, 2 d; at 50 µM; stronger effect = higher value
# unit: % | format: bare number

1) CCOC(=O)c1[nH]c2ccccc2c1NC(=O)c1ccc(Br)o1 | 7.09

Q: Determine its reported RAM network inhibition: "O=C(O)CCCCCN1C(=O)c2ccc(C(=O)O)cc2C1=O"
A: 6.72

Q: Determine its reported RAM network inhibition: Cc1ccccc1-n1nc2c(c1NC(=O)COc1ccc(Cl)cc1)CS(=O)C2 (stereo unspecified)
A: 1.42

Q: Determine its reported RAM network inhibition: "CCN(CC)S(=O)(=O)c1cc(Br)ccc1OC"
A: 1.97

Q: Determine its reported RAM network inhibition: CC12COC3(C(=O)Nc4cccnc4)CC1CCC32C (stereo unspecified)
A: 2.55

Q: Determine its reported RAM network inhibition: "CCn1ccc(C(=O)Nc2ccc(Cl)cn2)n1"
A: 3.03
